Test system: human Peripheral Blood Mononuclear Cells
procedure text: In vitro activation of human PBMC, tritiated thymidine incorporation
Assay type: cell-based
details: Peptide 1 micro g/ml; three days; Control 370
measured metric: incorporation of 3H thymidine

Record excerpt, results attached:
KRRETVEREKE (Hepreceptor peptide) [Rupe414]    449 radioactive counts per minute
TEKKRRETVER (Hepreceptor peptide) [Rupe111]    529 radioactive counts per minute
RETVEREKE (Hepreceptor peptide) [Rupe614]    600 radioactive counts per minute
KKRRETVERE (Hepreceptor peptide) [Rupe312]    472 radioactive counts per minute
KRRETVER (Hepreceptor peptide) [Rupe411]    468 radioactive counts per minute

What measured incorporation of 3H thymidine is associated with TEKKRRETV (Hepreceptor peptide) [Rupe19] on human Peripheral Blood Mononuclear Cells?
509 radioactive counts per minute

// data source = patent US6849596B1
